Quick reference: MIC of the listed items.
test system: Staphylococcus aureus; assay: Antibacterial activity against Staphylococcus aureus TISTR 1466 by two-fold broth dilution method; format: functional

Answered cases to consult:
>  <COMPOUND>
CN[C@H](CC(C)C)C(=O)N[C@H]1C(=O)N[C@@H](CC(N)=O)C(=O)N[C@H]2C(=O)N[C@H]3C(=O)N[C@H](C(=O)N[C@H](C(=O)O)c4cc(O)cc(O)c4-c4cc3ccc4O)[C@H](O)c3ccc(c(Cl)c3)Oc3cc2cc(c3O[C@@H]2O[C@H](CO)[C@@H](O)[C@H](O)[C@H]2O[C@H]2C[C@](C)(N)[C@H](O)[C@H](C)O2)Oc2ccc(cc2Cl)[C@H]1O

>  <MIC>
0.25 µg/mL

$$$$
>  <COMPOUND>
C=C(C)CC[C@@H]1C[C@@]2(CC=C(C)C)C(=O)[C@]3(CC=C(C)C)C[C@@]1(C)C2(O)/C(=C(/O)c1ccccc1)C3=O (relative stereo)

>  <MIC>
64 µg/mL

$$$$
>  <COMPOUND>
CC(C)=CCc1c(O)c(CC=C(C)C)c2oc3c(O)ccc(O)c3c(=O)c2c1O

>  <MIC>
128 µg/mL

$$$$

Record C=C(C)CC[C@@H]1C[C@]23CC4C(C)(C)c5ccccc5C(=O)C45C(=O)[C@@](CC=C(C)C)(C[C@@]1(C)[C@]52O)C3=O (relative stereo) : what is its MIC with Staphylococcus aureus? 128 µg/mL

Continue with C=CC(C)(C)c1c2c(c(O)c3c(=O)c4ccc(O)c(OC)c4oc13)C=CC(C)(C)O2 2 µg/mL

Continue with C=CC(C)(C)c1c2c(c(O)c3c(=O)c4ccc(O)c(O)c4oc13)C=CC(C)(C)O2 4 µg/mL

Continue with COc1c(CC=C(C)C)c(O)c2c(=O)c3ccc(O)c(O)c3oc2c1CC=C(C)C 32 µg/mL

Continue with CC(C)=CCc1c2c(c3oc4c(O)ccc(O)c4c(=O)c3c1O)C=CC(C)(C)O2 128 µg/mL

Continue with COc1c(CC=C(C)C)c(O)c2c(=O)c3ccc(O)c(OC)c3oc2c1CC=C(C)C 128 µg/mL
